System: Sweetpotato Whitefly-Crawler (Bemisia tabaci) (WF) (BEMITA)
Experiment: Insecticidal test for Sweetpotato Whitefly-Crawler in foliar spray assay on cotton plants
Assay type: in vivo
Conditions: 216 h, 200 ppm foliar spray on cotton, graded after 9 days, Abbott-corrected % control, read-out: % Control (or Mortality) rating, WF
Parameter Measured: mortality at 200 ppm

Here is how some compounds turned out for mortality at 200 ppm.
Compound	mortality at 200 ppm
C#CCN(C(=O)C(CSCCC(F)(F)F)=NOC)c1cn(-c2cccnc2)nc1Cl	80 to 100%
CCON=C(CSCCCC(F)(F)F)C(=O)N(CC)c1cn(-c2cccnc2)nc1Cl	80 to 100%
CCON=C(CS)C(=O)N(CC)c1cn(-c2cccnc2)nc1Cl	0 to 80%

// next entry
# returns recorded mortality at 200 ppm (system: Sweetpotato Whitefly-Crawler (Bemisia tabaci) (WF) (BEMITA)) for CCN(C(=O)C(C[S+]([O-])CC1CC1(F)F)=NOC)c1cn(-c2cccnc2)nc1Cl (stereo not shown)
80 to 100%
